- Tested on: HOP-92 NSCLC
- assay summary: NCI-60 one-dose screen, 48 h
- assay setup: 10 µM unless noted
About 83,000 compounds went through this panel and 20% of them were active in at least one assay; those are over-represented in the sample as a whole. Activity calls are given as the source filed them. Rule for the calls: active = growth percent below 10; inactive = the rest.
Reply using exactly one outcome from active, inactive

Completed entries (count: 4):
O=C(CCN1CCCCC1)c1ccc2ccccc2c1	inactive
CCCCN(CC)CC(CC)Nc1cc(OC)cc2cccnc12 (stereo not given)	inactive
CC(C)=CC/C=C(/C)[C@H]1CC[C@]2(C)[C@@H]1CC[C@@H]1[C@@]3(C)CCC(=O)NC(C)(C)[C@@H]3CC[C@]12C	active
Cc1ccc(-c2cc(-c3ccc(C)cc3)nc(N3CCN(CCNc4ccnc5cc(Cl)ccc45)CC3)n2)cc1	active

Please indicate how the test categorized "CCOC(=O)COc1ccc2c(c1)O/C(=C\c1ccc(O)cc1)C2=O" . inactive
